- System: SNB-19
- Test: NCI tumour cell line growth inhibition, 48 h
Active and inactive are the calls of the source. Rule as the data show it: active = GI50 up to about 1.1 µM and inactive = higher.
Recorded GI50 values for a group of compounds are listed next.

Example cases with answers are listed next.
compound=CCOC(=O)c1ccc(NC(=O)O/N=C(/Cl)CCl)cc1 experimental_target=SNB-19 assay_readout=GI50 measurement="86.1 µM (inactive)"
compound="COC(=O)C(Cc1nc2ccc(Cl)cc2nc1O)C(=O)C(=O)Nc1cc(C)ccc1C (stereo not drawn)" experimental_target=SNB-19 assay_readout=GI50 measurement="> 100 µM (inactive)"

Specify GI50 for "OCCN(CCO)c1cccc(N(CCO)CCO)n1" and stop.
> 100 µM (inactive)
